Assay: Plasma pharmacokinetics after single oral dose (clinical study Part A)
Format: in vivo, human
Details: both sexes, human; plasma, single oral dose 1000 mg urolithin A, healthy elderly subjects; read-out: AUC out to 36 hours
metric: AUC (ng·h/mL)
Please respond with the number in ng·h/mL and leave the unit unwritten.

Request: Write down AUC measured for item `O=c1oc2cc(O)ccc2c2ccc(O)cc12`
Result: 15.8

====

Test: Plasma pharmacokinetics after 28 day daily oral dosing (clinical study Part B)
Type: in vivo, human
Conditions: both sexes, human; plasma, day 28, daily oral 1000 mg urolithin A for 28 days
Protocol: Part B: The study was a double-blinded, randomized, multiple ascending dose study in 36 healthy elderly male and female volunteers. Each subject was randomised to receive study product or placebo for 28 days. Part B: Repeated oral dose administration from day 1 to day 28 according to the randomization. The administration took place around 8:00 am with around 200 mL tap water, in a sitting position, and under fasting conditions. […] The exact time of sample collection was recorded on the eCRF. […]
metric: Cmax (ng/mL)
Dear colleague, please return just the value in ng/mL, with no unit written.

Request: Determine its reported Cmax: `O=c1oc2cc(O)ccc2c2ccc(O)cc12`
Result: 1.97
